Biological target: BRD4-BD1 (Homo sapiens (Human), UniProt O60885)
Assay: AlphaLisa bromodomain binding assay, BRD4-BD1
Details: Table 6; read-out: BRD4(1) IC50
Experimental endpoint: IC50 (nM)
Give bare numbers, in nM.

In the examples that follow, each entry is paired with its recorded IC50.
>>> reported_value("CN1CCN(c2ccc(Nc3nc4c(c(Nc5cccc(NS(=O)(=O)C(C)(C)C)c5)n3)COC4)cc2)CC1 [drawing 188]")
526
>>> reported_value("CC(C)(C)S(=O)(=O)Nc1cccc(Nc2nc(NC3CCNCC3)nc3sccc23)c1 [drawing 203]")
94
>>> reported_value("COc1cc(N2CCN(C)CC2)ccc1Nc1ncc2ccn(-c3cccc(NS(=O)(=O)C(C)(C)C)c3)c2n1")
1600

Proceed to the following item.
Annotate the compound CC(C)(C)S(=O)(=O)N1CCc2ccc(Nc3nc(NC4CCNCC4)nc4sccc34)cc21 with its measured IC50.
640
